target: NLRP3 inflammasome (Homo sapiens, UniProt Q96P20); construct: endogenous in cells; experiment: IL-1β secretion assay (NLRP3 IC50) in LPS-primed, nigericin-activated THP-1 cells, HTRF; details: monocytic THP-1 cells; LPS 10 ng/mL 3 h priming, then compound + nigericin 10 μM 2 h; relative IC50, 10 concentrations, geometric mean
Sequence (Q96P20 whole entry): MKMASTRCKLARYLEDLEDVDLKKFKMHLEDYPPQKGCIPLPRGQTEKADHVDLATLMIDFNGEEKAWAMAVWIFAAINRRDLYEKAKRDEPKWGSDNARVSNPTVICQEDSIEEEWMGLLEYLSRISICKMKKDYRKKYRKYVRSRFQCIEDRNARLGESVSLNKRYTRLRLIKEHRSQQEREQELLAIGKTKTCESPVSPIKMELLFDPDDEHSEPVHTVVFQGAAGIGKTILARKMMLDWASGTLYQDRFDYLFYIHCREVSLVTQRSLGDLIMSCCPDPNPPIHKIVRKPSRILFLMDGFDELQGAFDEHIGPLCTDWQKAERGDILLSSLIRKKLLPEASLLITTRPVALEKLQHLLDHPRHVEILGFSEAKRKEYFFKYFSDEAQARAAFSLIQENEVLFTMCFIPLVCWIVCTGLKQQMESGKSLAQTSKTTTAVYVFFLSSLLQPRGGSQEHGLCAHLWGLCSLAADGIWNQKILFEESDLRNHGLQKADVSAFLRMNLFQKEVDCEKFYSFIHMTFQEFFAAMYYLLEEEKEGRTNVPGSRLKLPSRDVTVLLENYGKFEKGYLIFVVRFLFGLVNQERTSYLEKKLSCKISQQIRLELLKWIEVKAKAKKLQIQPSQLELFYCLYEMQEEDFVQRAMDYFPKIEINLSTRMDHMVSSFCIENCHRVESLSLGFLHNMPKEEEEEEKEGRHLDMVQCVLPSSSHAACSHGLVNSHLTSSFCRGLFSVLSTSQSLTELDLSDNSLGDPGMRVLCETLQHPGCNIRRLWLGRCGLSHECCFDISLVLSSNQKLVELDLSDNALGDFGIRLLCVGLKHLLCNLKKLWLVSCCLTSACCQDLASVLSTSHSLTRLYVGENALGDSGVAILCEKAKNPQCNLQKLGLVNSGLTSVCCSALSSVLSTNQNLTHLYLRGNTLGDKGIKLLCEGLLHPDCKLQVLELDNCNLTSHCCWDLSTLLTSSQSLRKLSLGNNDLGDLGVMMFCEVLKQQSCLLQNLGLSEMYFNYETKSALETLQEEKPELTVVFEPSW
log10 IC50 reference
Values below are the log10 of the recorded IC50, with nM as the unit.

Examples with answers:
input: Answer with reported log10 IC50 of Cc1cc(C(F)(F)F)cc(O)c1-c1ccc(N2CCO[C@H]3CCN(C4CCC4)C[C@H]32)nn1 (single isomer, unassigned)
output: 2.23

input: Tell me its log10 IC50 given Cc1cc(O)c(-c2ccc(N3CCO[C@H](CO)C3)nn2)c(C(F)F)c1 as the entry.
output: 1.67

input: Give the value of log10 IC50 reported for the following: Cc1cc(C)c(-c2ccc(N3CCO[C@@H](CS)C3)nn2)c(O)c1
output: 3.45

input: Return the recorded log10 IC50 value; entry: Cc1cc(C)c(-c2ccc(N3CCOCC34CN(C)C4)nn2)c(O)c1
output: 3.85

Continuing:
input: Give the reported log10 IC50 for this compound. Cc1cc(C)c(-c2ccc(N3CCCC4(COCCN4C)C3)nn2)c(O)c1 (stereo not shown)
output: 3.67
